Origin of values: patent US20230263822A1

# key: entry, value: hemoglobin
# assay method text: Hematology assays in cynomolgus monkeys (Example 45)
# Assay type: in vivo
# condition description: day 29; escalating dose regimen
# Procedure: Groups, each consisting of two male and three female monkeys, were injected subcutaneously with ISIS 416838, ISIS 416850, ISIS 416858, ISIS 416864, or ISIS 417002 in escalating doses. […] Body weights were measured weekly. […]
reported metric: hemoglobin

- ISIS 416864: MOE gapmer, nucleobases 1275 to 1318 of SEQ ID NO: 1 (Table 8) (antisense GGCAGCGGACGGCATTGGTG; MOE gapmer, wing and gap sizes not given here): 12.1 g/dL
- ISIS 416838: MOE gapmer, nucleobases 1018 to 1042 of SEQ ID NO: 1 (Table 6) (antisense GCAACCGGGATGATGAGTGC; MOE gapmer, wing and gap sizes not given here): 12.4 g/dL
- ISIS 416850: MOE gapmer, nucleobases 1275 to 1318 of SEQ ID NO: 1 (Table 8) (antisense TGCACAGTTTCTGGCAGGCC; MOE gapmer, wing and gap sizes not given here): 11.5 g/dL
- ISIS 416858: MOE gapmer, nucleobases 1275 to 1318 of SEQ ID NO: 1 (Table 8) (antisense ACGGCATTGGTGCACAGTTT; MOE gapmer, wing and gap sizes not given here): 12.3 g/dL
- ISIS 417002: MOE gapmer, nucleobases 1275 to 1318 of SEQ ID NO: 1 (Table 8) (antisense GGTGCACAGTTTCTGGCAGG; MOE gapmer, wing and gap sizes not given here): 12.0 g/dL

----------
# assay method text: Body and organ weights of cynomolgus monkeys (Example 46)
# Format: in vivo
# condition description: day 50
Strand notation (5' to 3'): a small letter for the sugar, then the base; units joined by * are phosphorothioate-linked, units joined directly phosphodiester-linked; [ ] holds rarer units or linkages, { } end groups; capitals alone tell only the bases. e = 2'-O-(2-methoxyethyl) (MOE); [5mC] = 5-methylcytosine; d = 2'-deoxy (DNA)
reported metric: body weight (g)

• ISIS 449710: 3-8-3, 4-8-4, 2-10-2, 3-10-3 or 4-10-4 MOE microwalk gapmer (Table 46) (antisense e[5mC]*eA*e[5mC]*dA*dG*dT*dT*dT*d[5mC]*dT*dG*dG*d[5mC]*eA*eG*eG) = 2201
• ISIS 449711: 3-8-3, 4-8-4, 2-10-2, 3-10-3 or 4-10-4 MOE microwalk gapmer (Table 46) (antisense eA*e[5mC]*dA*dG*dT*dT*dT*d[5mC]*dT*dG*dG*d[5mC]*eA*eG) = 2227
• ISIS 449707: 3-8-3, 4-8-4, 2-10-2, 3-10-3 or 4-10-4 MOE microwalk gapmer (Table 46) (antisense e[5mC]*eA*e[5mC]*eA*dG*dT*dT*dT*d[5mC]*dT*dG*dG*e[5mC]*eA*eG*eG) = 2185
• ISIS 416858: MOE gapmer, nucleobases 1275 to 1318 of SEQ ID NO: 1 (Table 8) (antisense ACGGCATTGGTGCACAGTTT; MOE gapmer, wing and gap sizes not given here) = 2225
• ISIS 445522: 5-8-5 or 6-8-6 MOE microwalk gapmer (Table 44) (antisense eG*e[5mC]*eA*e[5mC]*eA*dG*dT*dT*dT*d[5mC]*dT*dG*dG*e[5mC]*eA*eG*eG*e[5mC]) = 2127
